Consider the following binders; for each one, report its IC50.
system: T1, purified recombinant MHC II protein, allele DRB1*1301 (human)
T1 construct: bought from Benaroya Research Institute; also called MHC-II DR molecule
test name: MHC II competition binding assay
Answers are plain numbers, in µM.

Previously resolved entries follow.
{"binder": "DHVEAGQIIGWSGSTGY (synthetic mutated peptide of the lysostaphin catalytic domain; also called 93_95) [cluster 4 peptide with Tyr93His/Lys95Glu]", "endpoint value": 18.9}
{"binder": "DYVEAGQIIGWSGSTGY (synthetic mutated peptide of the lysostaphin catalytic domain; also called K95E) [cluster 4 peptide with Lys95Glu]", "endpoint value": 25.7}

Please examine the following record next.
Consider DYVKAGQIIGWSGSTGY [cluster 4 wild-type (C4WT) epitope peptide] . Its measured IC50 is 78.5

The origin of these recorded values is patent US20210395713A1.
